target: Ca IleRS (isoleucyl-tRNA synthetase) (Candida albicans, UniProt Q59RI1)
Reported property: Kd

Q) // query Kd value for entry "C/C(=C\C(=O)OCCCCCCCCC(=O)O)C[C@@H]1OC[C@H](C[C@@H]2O[C@H]2[C@@H](C)[C@H](C)O)[C@@H](O)[C@H]1O"
A) 103 to 111 µM

----------
target: Ca IleRS mutant (isoleucyl-tRNA synthetase) (Candida albicans, UniProt Q59RI1, I601F/T599H); experiment: microscale thermophoresis
Reported property: Kd

Q) Would you kindly share the measured Kd for C/C(=C\C(=O)OCCCCCCCCC(=O)O)C[C@@H]1OC[C@H](C[C@@H]2O[C@H]2[C@@H](C)[C@H](C)O)[C@@H](O)[C@H]1O [mupirocin] ?
A) 103 to 111 µM
